Data credit: patent US20250270707A1

assay: Corrosion rate by LPR sweep, copper coupons in synthetic water, 50° C., 1 ppm free chlorine after 0.5 hrs (Examples 1 and 2); details: 2 ppm; 12 hrs
quantity kind: corrosion rate (mpy)
Note: unit mpy is implicit; provide only the numeric part.

1) CCCCCCCC(=O)NCCN(CCOCC(=O)[O-])CC(=O)[O-].[Na+].[Na+] [DCyADAA, Disodium Capryloamphodiacetate] : 0.2953
2) CCCCCCCCCCCC(=O)NCCN(CCOCC(=O)[O-])CC(=O)[O-].[Na+].[Na+] [DLADAA, Disodium Lauroamphodiacetate] : 0.0419
3) CCCCCCCCCCCCN(CCC(=O)[O-])CCC(=O)O.[Na+] [SL, Sodium Lauriminodipropionate, reference compound] : 0.0757

Okay, now this molecule:
Fill in corrosion rate for record CCCCCCCC(=O)NCCN(CCOCCC(=O)[O-])CCC(=O)[O-].[Na+].[Na+] [DCADPP, Disodium Capryloamphodipropionate]
0.3293

----------
assay: Cl2 demand in the corrosion cell test (Examples 1 and 2); type: physicochemical; details: 2 ppm
quantity kind: Cl2 Demand (mg/L)
Note: unit mg/L is implicit; provide only the numeric part.

These recorded examples may help you get a feel for the data.
1. CCCCCCCCCCCC(=O)NCCN(CCOCC(=O)[O-])CC(=O)[O-].[Na+].[Na+] [DLADAA, Disodium Lauroamphodiacetate] : 0.7
2. CCCCCCCC(=O)NCCN(CCOCCC(=O)[O-])CCC(=O)[O-].[Na+].[Na+] [DCADPP, Disodium Capryloamphodipropionate] : 1.0

Fill in Cl2 Demand for record CCCCCCCC(=O)NCCN(CCOCC(=O)[O-])CC(=O)[O-].[Na+].[Na+] [DCyADAA, Disodium Capryloamphodiacetate]
1.1

Fill in Cl2 Demand for record CCCCCCCCCCCCN(CCC(=O)[O-])CCC(=O)O.[Na+] [SL, Sodium Lauriminodipropionate, reference compound]
0.7
